- TESTED ON: pre-existing anti-scFv903 antibodies in human serum H76 (human)
- ASSAY SUMMARY: competition ADA bridging ELISA
OBSERVED PROPERTY: signal change in competition ELISA (% reduction in OD)

Item: scFv 791 (scFv) scFv: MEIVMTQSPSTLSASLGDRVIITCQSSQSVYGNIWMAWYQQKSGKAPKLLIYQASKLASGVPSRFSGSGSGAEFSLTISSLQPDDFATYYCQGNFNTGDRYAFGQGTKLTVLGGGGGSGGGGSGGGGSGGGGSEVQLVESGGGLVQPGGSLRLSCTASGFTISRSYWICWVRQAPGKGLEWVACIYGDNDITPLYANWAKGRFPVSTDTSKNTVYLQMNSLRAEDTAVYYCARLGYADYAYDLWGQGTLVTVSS | signal change in competition ELISA (% reduction in OD): -96%
